System: IL-1β
Experiment: PBMC assay: inhibition of IL-1β release after LPS stimulation (MSD)
Assay type: cell-based
Settings: Homo sapiens, PBMC, 6 h, human PBMCs, 100 ng/ml LPS for 6 hrs, MSD, 96 well plates; read-out: IL1β IC50
pIC50: −log10 of the molar value.
Assign met to entries whose pIC50 meets or exceeds 6; assign not met to the rest.

{"Compound": "CC(C)c1nn(CC(=O)Nc2ccc(C3CC3)nn2)c(=O)c2ccc(C(F)(F)F)cc12 [Final Cpd X179]", "Group": "not met"}

API: above_or_equal(metric=pIC50, cutoff=6) for item Cc1nccc(NC(=O)Cn2nc(C(C)C)c3cc(C4(F)CC4)ccc3c2=O)c1F [X-1075]
met

API: above_or_equal(metric=pIC50, cutoff=6) for item CC[C@@H](C)c1nn(CC(=O)Nc2ccc3nncn3c2)c(=O)c2ccc(C(F)(F)F)cc12 (single isomer, unassigned) [Final Cpd X12]
met

API: above_or_equal(metric=pIC50, cutoff=6) for item CC(C)c1nn(CC(=O)Nc2ccc3c(c2)nnn3C)c(=O)c2ccc(C(F)(F)F)cc12 [Final Cpd X113]
not met

API: above_or_equal(metric=pIC50, cutoff=6) for item CC(C)c1nn(CC(=O)N[C@@H]2CCCN(C3CC3)C2)c(=O)c2ccc(C(F)(F)F)cc12 [Final Cpd X10]
met

API: above_or_equal(metric=pIC50, cutoff=6) for item CCN1CCC[C@@H](NC(=O)Cn2nc(C(C)C)c3cc(C(F)(F)F)ccc3c2=O)C1=O (single isomer, unassigned) [Final Cpd X166]
not met

API: above_or_equal(metric=pIC50, cutoff=6) for item CCOC(C)c1ccc2c(=O)n(CC(=O)N[C@H]3C[C@@](C)(O)C3)nc(C(C)C)c2c1 (some centres unmarked) [X-1042]
not met

API: above_or_equal(metric=pIC50, cutoff=6) for item CC(C)c1nn(CC(=O)Nc2ccc3cncn3c2)c(=O)c2ccc(C(F)(F)F)cc12 [Final Cpd X20]
met

API: above_or_equal(metric=pIC50, cutoff=6) for item C[C@]1(O)C[C@@H](NC(=O)Cn2nc(C3CC3)c3cc(Br)ccc3c2=O)C1 [X-1022]
met
